Listing: pIC50 of selected compounds
- Test system: HeLa S3
- assay_text: Cytotoxicity against human HeLa S3 cells
- Type: functional, cell-based
Conceptually, pIC50 converts a concentration in mol/L into minus its log10.

[
  {
    "compound": "CCC(C)C1Nc2ccccc2NC1=O (configuration not stated)",
    "assay_endpoint": "pIC50",
    "measured_result": 4.76
  }
]

For the next question, use this compound.
Read the entry N#Cc1ccc2c(c1)N1CCCCC1C(=O)N2 (configuration not stated) and write its reported pIC50.
5.12

====

Listing: pIC50 of selected compounds
- assay_text: Displacement of [3H]glycine from AMPA receptor (unknown origin)
- Assay type: protein-complex assay, Homo sapiens
Conceptually, pIC50 converts a concentration in mol/L into minus its log10.

Field: example entries. Status: answers known.
[
  {
    "cpd_smiles": "CCc1c([N+](=O)[O-])cc2nc(O)c(O)nc2c1CN(C)CC(=O)O",
    "pIC50": 6.33
  },
  {
    "cpd_smiles": "CN1CCc2c([N+](=O)[O-])cc3[nH]c(=O)c(=O)[nH]c3c2C1",
    "pIC50": 6.43
  }
]

Read the entry CN1CCc2c(c([N+](=O)[O-])cc3[nH]c(=O)c(=O)[nH]c23)C1 and write its reported pIC50.
5.31

====

- system_tested: Glutamate receptor ionotropic AMPA (Homo sapiens, UniProt P42261+P42262+P42263+P48058)
- assay_text: Displacement of [3H]kainate from AMPA receptor (unknown origin)
- Type: protein-complex assay
assay_endpoint: pKi
Conceptually, pKi converts a concentration in mol/L into minus its log10.

Read the entry O=c1[nH]c2cc(-n3ccnc3)c([N+](=O)[O-])cc2[nH]c1=O [YM-90K] and write its reported pKi.
5.66

====

- assay_text: Displacement of [3H]flunitrazepam from GABAA/benzodiazepine receptor complex (unknown origin)
- Set-up: species or system Homo sapiens
assay_endpoint: pKi
Conceptually, pKi converts a concentration in mol/L into minus its log10.

Read the entry CC(C)n1c(=O)c2c(-c3ccc(F)cc3)ncn2c2cccc(Cl)c21 and write its reported pKi.
7.84

====

- system_tested: Glutamate [NMDA] receptor
- assay_text: Displacement of [3H]MK-801 from NMDA receptor (unknown origin)
assay_endpoint: pEC50
Conceptually, pEC50 converts a concentration in mol/L into minus its log10.

Read the entry O=C(O)c1nc2c(=O)[nH]c3cc(Cl)c(Cl)cc3n2n1 and write its reported pEC50.
6.52

====

Listing: MBC of selected compounds
- System: Trichophyton mentagrophytes
- assay_text: Antimicrobial activity against Trichophyton mentagrophytes
- Format: functional

[
  {
    "cpd_smiles": "CCCCCCCCC[n+]1cccc(-c2nc(-c3ccccc3)c3c(=O)n(CCCCCC)c4ccccc4n23)c1.[Br-]",
    "system_tested": "Trichophyton mentagrophytes",
    "assay_endpoint": "MBC",
    "measured_result": "250 µg/mL"
  }
]

Read the entry CCCCCCCCCn1c(=O)c2c(-c3ccccc3)nc(-c3ccc[n+](CCCCCCCCC)c3)n2c2ccccc21.[Br-] and write its reported MBC.
> 500 µg/mL

Read the entry CCCCCCCCC[n+]1cccc(-c2nc(-c3ccccc3)c3c(=O)n(CCCCCC)c4ccccc4n23)c1.[I-] and write its reported MBC.
> 500 µg/mL

Read the entry CCCCCCn1c(=O)c2c(-c3ccccc3)nc(-c3ccc[n+](Cc4ccccc4)c3)n2c2ccccc21.[Cl-] and write its reported MBC.
> 500 µg/mL

Read the entry CCCCCCCCCn1c(=O)c2c(-c3ccccc3)nc(-c3ccc[n+](CCCCCCCCC)c3)n2c2ccccc21.[I-] and write its reported MBC.
> 500 µg/mL

Read the entry CCCCCCCCCn1c(=O)c2c(-c3ccccc3)nc(-c3ccc[n+](Cc4ccccc4)c3)n2c2ccccc21.[Cl-] and write its reported MBC.
> 500 µg/mL
